studySystem: T1, human IL-17A (human, UniProt Q16552 20-155, limits assumed)
T1 construct: Bought from R&D Systems; also called IL-17 antigen (human IL17A)
T1 sequence (looked up): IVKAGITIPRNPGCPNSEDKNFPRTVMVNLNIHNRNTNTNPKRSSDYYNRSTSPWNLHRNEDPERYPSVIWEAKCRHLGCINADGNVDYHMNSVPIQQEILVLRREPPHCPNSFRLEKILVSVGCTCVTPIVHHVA
assayComment: BLI (Octet Red96), antibody captured on AHC biosensor, human IL-17A in solution, 1:1 model, 25 C
parameterMeasured: pKd
Give bare numbers, as −log10 of the molar value.

Identify pKd associated with the binder PP10759 (antibody, human IgG4 S228P, kappa, V domains shown, expressed in HEK293; also called chimeric antibody PP10759; chimeric parental antibody) VH: EVQLVESGGGLVQPGGSLKLSCVASGFTFSTYGMSWVRQTPDKRLELVAIINHNGGSTFYPDSVKGRFTVSRDNAKNTLHLQMSSLKSEDTAMYYCARDPRHDGYFFDYWGQGTTLTVSS VL: DIQMTQSSPSFSVSLGDRVTITCKASEDIYDRLAWYQQKPGNAPRLLISGATSLETGIPSRFSGSRSGKDYTLDINSLQTEDAATYYCQQYWSVPWTFGGGTKLEIKR
8.96
